System: Actinobacillus pleuropneumoniae CVCC262
experiment: MIC by mini broth dilution technique (in vitro susceptibility)
Format: cell-based
recorded.conditions: Actinobacillus pleuropneumoniae CVCC262; broth dilution; read-out: MIC values Actinobacillus pleuropneumoniae CVCC262
observed.property: MIC (µg/mL)
Report the figure in µg/mL without appending any unit label.

compound	value.measured
CC[C@@H]1OC(=O)[C@H](C)[C@H](OC2C[C@@](C)(OC)[C@](O)(CNCc3cnc(C)cn3)[C@H](C)O2)[C@@H](C)[C@@H](O[C@@H]2O[C@H](C)C[C@H](N(C)C)[C@H]2O)[C@](C)(O)C[C@@H](C)NC[C@@H](C)[C@H](O)[C@]1(C)O (some centres unmarked) [syzx-65]	32

Now for another entry.
Summary for this compound, CC[C@@H]1OC(=O)[C@H](C)[C@H](OC2C[C@@](C)(OC)[C@](O)(CNC3CC3)[C@H](C)O2)[C@@H](C)[C@@H](O[C@@H]2O[C@H](C)C[C@H](N(C)C)[C@H]2O)[C@](C)(O)C[C@@H](C)NC[C@@H](C)[C@H](O)[C@]1(C)O (some centres unmarked) [syzx-6] : MIC is 0.125
